system name: E3 ubiquitin-protein ligase XIAP (Homo sapiens)
test summary: small molecules displacing peptide from XIAP – biochemical, IAP family, fluorescence polarization (AID 1018)
condition: XIAP BIR domain, at 20 µM
The whole screen tested about 200,000 compounds, of which about 15 (0.007%) were called active. Rule as the data show it: active = displacement above about 50%; inactive = the rest. The sample holds actives, similar compounds and a random draw of the others, so the mix is not that of the screen.
Outcomes: active, inactive

{"compound": "Cn1nccc1C(=O)Nn1cnnc1", "classification": "inactive"}
{"compound": "Cc1nn(CCC#N)c2[nH]c(=O)cc(C(F)(F)F)c12", "classification": "inactive"}
{"compound": "COc1cc(OC)c(C(=O)NCC(c2cccs2)N(C)C)cc1OC (stereo not drawn)", "classification": "inactive"}
{"compound": "O=C1NC2=C(CCc3ccccc32)C(c2ccccc2)N1 (stereo not drawn)", "classification": "inactive"}
{"compound": "CC(=O)c1cc(-c2ccccc2)n(CC(=O)Nc2cc(C)cc(C)c2)c1C", "classification": "inactive"}
{"compound": "CN1CCN(CC(O)COC(c2ccccc2)c2ccccc2)CC1 (stereo not drawn)", "classification": "inactive"}
{"compound": "CC(=O)Nc1cccc(NC(=O)Nc2cccc(Cl)c2C)c1", "classification": "inactive"}
{"compound": "CC1CCN(S(=O)(=O)c2ccc(N/N=C(/C#N)C(N)=O)cc2)CC1", "classification": "inactive"}
{"compound": "O=C(Nc1cn(-c2ccccc2)nc1-c1ccc(Cl)cc1)c1ccccc1", "classification": "inactive"}
{"compound": "CC(C)Oc1cccc(C(=O)C2CCCN(Cc3ccc4nonc4c3)C2)c1 (stereo not drawn)", "classification": "inactive"}
{"compound": "COCCN1CCN(c2c3c(nc4cc(-c5cccc(F)c5)nn24)CCC3)CC1", "classification": "inactive"}
{"compound": "Cc1ccc(C(=O)Nc2ncc(C)s2)o1", "classification": "inactive"}
{"compound": "CN(C)CCNC(=O)c1ccccc1", "classification": "inactive"}
{"compound": "COc1ccccc1N1CCN(C(=O)CCN2C(=O)c3cccc4cccc(c34)C2=O)CC1", "classification": "inactive"}
{"compound": "CCN(CC)CCNC(=O)/C(=C/c1cn(CC)c2ccccc12)NC(=O)c1cc(OC)c(OC)c(OC)c1", "classification": "inactive"}
{"compound": "CC(=O)Nc1ccccc1OCC(=O)NCCc1ccc(Cl)cc1Cl", "classification": "inactive"}
{"compound": "Cc1ccccc1NC(=O)Cc1c(O)c2ccccc2[nH]c1=O", "classification": "inactive"}
{"compound": "COc1ccc(CN2C(=O)c3cccnc3C2Nc2ccc(OC)c(Cl)c2)cc1 (stereo not drawn)", "classification": "inactive"}
{"compound": "CCOC(=O)c1c(-c2ccccc2)oc2ccc(O)c(CN3CCN(C)CC3)c12", "classification": "inactive"}
{"compound": "Cc1ccc(N=N/C(=C\\O)C(=O)c2ccc(Cl)cc2)cc1", "classification": "inactive"}
{"compound": "Cc1cc(F)ccc1N1CCC(N2CCN(C(C)C)C(CCO)C2)CC1 (stereo not drawn)", "classification": "inactive"}
{"compound": "COc1ccc(CN2C(=O)c3cccnc3C2Nc2cc(Cl)ccc2OC)cc1 (stereo not drawn)", "classification": "active"}
{"compound": "Cc1ccc(NC(=O)COC(=O)c2ccc3c(c2)NC(=O)C2CCCN32)cc1 (stereo not drawn)", "classification": "inactive"}
